# Assayed Target: Histidine--tRNA ligase (Leishmania infantum)
# Assay Details: Leishmania infantum Histidine tRNA synthetase (LdHisRS)
# Assay type: functional
# Set-up: scale not given: in the data most compounds retested in dose-response had high values
# Experimental Conditions: 30 µM
About 420 (0.61%) of roughly 69,000 compounds showed an effect of 50% or more. For the sample, strong results were picked, then their nearest neighbours and some compounds at random.
Value Kind: Percent Effect (%)
Answer in %, number only, no unit symbol.

A selection of reference data follows.
>>> recorded_measurement("CCN(CC)CCNC(=O)CCc1c(C)nn(-c2ccc(Cl)cc2)c1C")
7.92
>>> recorded_measurement("COc1cc(CCO)c(OC)c2c1OCO2")
51.7
>>> recorded_measurement("CC(C)NC(=O)[C@H]1C[C@@H]2[C@@H](C1)OCCN2Cc1ccco1")
5.56
>>> recorded_measurement("CN(C)C[C@H]1OC[C@@H]2CCN(C(=O)c3cccn3C)C[C@@H]21")
9.43
>>> recorded_measurement("Cc1ccc(-n2nc(C)c3c2NC(=O)CC3c2cnc(N)s2)cc1 (stereo not given)")
17.3
>>> recorded_measurement("CCCS(=O)(=O)N1C[C@@H](Oc2ncccc2F)[C@H]2OCCC[C@H]21")
8.22
>>> recorded_measurement("CC1=C(C#N)C(=O)NC(=O)/C1=C\\c1c(C)nn(-c2ccccc2)c1O")
43.3
>>> recorded_measurement("COc1ncccc1CN1C[C@@H]2COC[C@]2(COc2cccnc2)C1")
20.5
>>> recorded_measurement("Cc1ccc(N(C)[C@@H]2CC[C@@H]3CN(C(=O)CC4CCOCC4)C[C@@H]32)nn1")
12.8

Now consider a different compound.
Lookup: Quick one: Percent Effect for Cc1cccc(CN2C[C@@H]3COC[C@]3(CNC(=O)C3CC3)C2)c1 ?
Found: 11.9

###

# Assayed Target: Histidine--tRNA ligase (Leishmania infantum) (UniProt A4I591)
# Assay Details: Leishmania infantum Histidine tRNA synthetase (LdHisRS)
# Assay type: functional
# Parameters: scale not given: in the data most compounds retested in dose-response had high values
# Experimental Conditions: 30 µM
Hit rate of the full screen: of about 69,000 compounds, about 420 (0.61%) showed an effect of 50% or more. The full list was thinned out, with strong results kept by preference.
Value Kind: Percent Effect (%)
Could you give me the number in %? Just the number is fine.

Below are worked cases with known answers.
>>> recorded_measurement("O=C(O)CNc1cc(-c2nccnc2N2CCCC2)c2cc[nH]c2n1")
20.2
>>> recorded_measurement("CCc1cnc(N2C[C@H](OCc3csc(C)n3)[C@H]3COC[C@H]32)nc1")
20.7
>>> recorded_measurement("CCC1=NN2C(=N)/C(=C\\c3cccn3-c3ccc(Br)cc3)C(=O)N=C2S1")
11
>>> recorded_measurement("CNC(=O)N1C[C@H]2C[C@H](C(=O)Nc3ccccc3)[C@@H](C1)O2")
19.6
>>> recorded_measurement("O[C@@]1(CN2CCN(Cc3ccncc3)CC2)CCCN2CCCC[C@@H]21")
20

Turning now to a further record.
Lookup: May I ask what Percent Effect has been recorded for Nc1cc(-c2nccnc2N2CCCC2)c2cc[nH]c2n1 ?
Found: 20.2

###

# Assayed Target: Histidine--tRNA ligase (Leishmania infantum)
# Sequence (whole entry): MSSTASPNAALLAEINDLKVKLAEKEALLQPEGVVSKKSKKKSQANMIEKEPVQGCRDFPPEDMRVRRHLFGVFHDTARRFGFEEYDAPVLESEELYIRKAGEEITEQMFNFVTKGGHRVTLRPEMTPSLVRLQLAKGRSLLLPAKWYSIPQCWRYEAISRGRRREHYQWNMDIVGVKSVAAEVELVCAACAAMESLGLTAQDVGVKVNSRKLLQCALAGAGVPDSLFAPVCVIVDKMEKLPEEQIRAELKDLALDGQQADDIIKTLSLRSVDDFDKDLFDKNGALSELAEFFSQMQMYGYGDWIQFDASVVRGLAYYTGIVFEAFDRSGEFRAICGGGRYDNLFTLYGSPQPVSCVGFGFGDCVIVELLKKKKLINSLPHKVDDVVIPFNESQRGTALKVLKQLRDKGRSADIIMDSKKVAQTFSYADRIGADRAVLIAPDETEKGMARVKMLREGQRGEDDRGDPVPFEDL
# Assay Details: Leishmania infantum Histidine tRNA synthetase (LdHisRS)
# Type: functional
# Set-up: scale not given: in the data most compounds retested in dose-response had high values
# Experimental Conditions: 30 µM
Among all 69,000 compounds or so, about 420 (0.61%) showed an effect of 50% or more. What follows is part of a selection rich in strong results, with near analogues and random picks from the rest.
Value Kind: Percent Effect

Observe how each entry below is paired with its result.
>>> recorded_measurement("O=C(Cc1ccsc1)N1C[C@@H]2COC[C@]2(COc2cccnc2)C1")
"15.4%"
>>> recorded_measurement("CCN1CCO[C@@H]2CN(C(=O)c3ccc4[nH]ccc4c3)CC[C@@H]2C1")
"26%"
>>> recorded_measurement("CC(C)NC(=O)[C@]12COC[C@H]1CN(Cc1cnn(C)c1)C2")
"12.5%"

Lookup: Which measured Percent Effect value corresponds to O=C(N[C@@H]1CN(c2ncccn2)[C@@H]2CCCO[C@@H]21)c1cnccn1 ?
Found: 18.9%

Lookup: Given the entry O=C1CC[C@H]2[C@H](CCN2C(=O)C2CCOCC2)N1Cc1ccncc1 , report its measured Percent Effect.
Found: 17.5%
